study_system: Thiamine transporter ThiT (Lactococcus lactis subsp. cremoris (strain MG1363))
Sequence (A2RI47 whole entry): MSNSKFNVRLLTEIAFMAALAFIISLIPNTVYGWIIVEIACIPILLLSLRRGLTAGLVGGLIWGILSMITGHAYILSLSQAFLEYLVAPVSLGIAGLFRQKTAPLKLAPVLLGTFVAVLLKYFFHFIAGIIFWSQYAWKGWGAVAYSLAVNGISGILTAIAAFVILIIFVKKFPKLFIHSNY
protocol_details: Intrinsic-Fluorescence Titration
Rule: Kd below 7 nM gives condition met. Equal to or above 7 nM gives condition not met.

                       molecule                              study_system           category
0   Cc1ncc(Cc2csc(CO)c2C)c(N)n1  Thiamine transporter ThiT (Lactococcus lactis subsp. cremoris (strain MG1363))      condition met
1  Cc1ncc(Cc2csc(CCO)c2C)c(N)n1  Thiamine transporter ThiT (Lactococcus lactis subsp. cremoris (strain MG1363))      condition met
2  Cc1ncc(Cc2csc(C=O)c2C)c(N)n1  Thiamine transporter ThiT (Lactococcus lactis subsp. cremoris (strain MG1363))  condition not met
3   Cc1ncc(Cc2cccc(CO)c2)c(N)n1  Thiamine transporter ThiT (Lactococcus lactis subsp. cremoris (strain MG1363))  condition not met

Please turn your attention to the following entry.
Here's an entry: Cc1ncc(Cc2cccc(CCO)c2)c(N)n1 . Is its Kd below 7 nM?
condition not met
